# credit: the supplement of paper PMC7877785

# assay-overview: self-splicing fitness, log relative to wild type (ln ratio); higher = more splicing; Tetrahymena group I intron in knt gene, E. coli kanamycin selection, DiMSum; sequences stand for … in CUCUCU…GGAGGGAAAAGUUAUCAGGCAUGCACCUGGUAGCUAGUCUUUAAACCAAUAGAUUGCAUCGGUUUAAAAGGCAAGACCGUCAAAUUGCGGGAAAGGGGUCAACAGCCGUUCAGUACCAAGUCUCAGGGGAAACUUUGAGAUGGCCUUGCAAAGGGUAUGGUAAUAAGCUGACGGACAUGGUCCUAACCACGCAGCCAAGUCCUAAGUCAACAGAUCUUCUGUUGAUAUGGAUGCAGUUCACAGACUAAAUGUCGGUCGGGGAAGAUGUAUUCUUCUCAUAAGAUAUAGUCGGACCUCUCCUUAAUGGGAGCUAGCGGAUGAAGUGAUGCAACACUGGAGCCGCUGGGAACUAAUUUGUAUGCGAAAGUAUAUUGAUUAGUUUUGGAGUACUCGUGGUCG;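 note: selection with 25 µg/mL kanamycin versus none on LB agar overnight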
# measurement-setup: 37 °C
Assignment: determine reported self-splicing fitness (ln) for the given sequences.

I'd like to know its self-splicing fitness (ln). The sequence in question is GGCAAGCAAUAUUACGGCAC 0.369

Also check UAAGAGCAAUAUUACGAUCU -2.86

Item: CGCGAGCAAUAUUACGUGGA -3.01

Try UUUUAGCAAUAUUACGACGG next. -0.173

And what about the sequence GGUUAGCAAUAUUACGGCUU ? 1.05

What do we get for AAUAAGCAAUAUUACGCUAU ? -2.24

What about UGCUAGCAAUAUUACGGGAU ? -1.76

And UGCAAGCAAUAUUACGCUGG ? -3.17

# repeat for AUCUAGCAAUAUUACGUAUA -1.91

Same question, UACUAGCAAUAUUACGUGAG this time -2.56

Now consider GAGGAGCAAUAUUACGUUCG and answer again. -1.27

Okay, and UCGGAGCAAUAUUACGUGUA ? -1.29

// next record CAAAAGCAAUAUUACGACAG -0.154

Consider next the sequence AUUAAGCAAUAUUACGUUUC in the same way. -1.65

Further, for ACUAAGCAAUAUUACGGUAU ? -1.73

Please do the same for AGGAAGCAAUAUUACGCGGG as well. -1.67
